Measured pKd by item
# subject_of_test: T1, CCL4L1_HUMAN (Homo sapiens)
# T1 chain: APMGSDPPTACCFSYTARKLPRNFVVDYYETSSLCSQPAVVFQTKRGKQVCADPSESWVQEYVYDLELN
# assay_notes: BLI
The value called pKd is obtained by taking minus log10 of the concentration in mol/L.

P985_AMBPA, purified, C-terminal StrepII-8xHis tag (natural protein) ETGDEESEELGASTDVDYEELDANCTCPAPALTSTRNNKHYPLGCIYNCSSYNCTIPDGTPCYVLTLGEVKEHLQIGSTVPNCTCGLCRNGTCVSNGTVEECFAVEEIEET :: 7.68

P546_AMBCA, purified, C-terminal StrepII-8xHis tag (natural protein) ETGENTQQEEEDYDYGTDTCPFPVLANKTNKAKFVGCHQKCNGGDQKLTDGTACYVVERKVWDRMTPMLWYSCPLGECKNGVCEDLRKKEECRKGNGEEK has a reported pKd of 8.05
